Test system: HEK-293T
Assay: Incucyte cell viability with HEK293T; note: unitless GR value; below 1 slowed growth and below 0 cell loss
Format: toxicity, cell-based
Settings: human, 12 h, 10 µM, compound concentration 10 uM, replicate number 1
Listing of recorded Growth Rate by entry.
Provide a numeric answer; units are not to be included.

INSERT INTO measurements (compound, quantitative_readout) VALUES
  ('Cc1c(CN2CCC3(CC2)CN(c2ncnc4sc(CC(F)(F)F)cc24)C3)ccc2c1cc(C#N)n2CC(N)=O', 0.59),
  ('COC(=O)c1ccc2c(c1)NC(=O)/C2=C(\Nc1ccc(N(C)C(=O)CN2CCN(C)CC2)cc1)c1ccccc1 [NINTEDANIB]', 0.57),
  ('CC[C@@H](CO)Nc1nc(Nc2cccc(NC(=O)C(C)(C)C)c2)ncc1F', 0.87),
  ('O=C(O)[C@]1(Cc2cccc(Nc3nccs3)n2)CC[C@@H](Oc2cccc(Cl)c2F)CC1 [MK-5108]', 0.39),
  ('O=C(NCCN1CCOCC1)c1ccc2nn(CCOc3ccc(Cl)cc3)cc2c1', 0.82);

INPUT: Tell me reported Growth Rate for COc1c(-c2cn(C3CCC(=O)NC3=O)nn2)csc1C(=O)N1CCCC1 (stereo not given) , tested with HEK-293T.
OUTPUT: 0.77

INPUT: Tell me reported Growth Rate for CC1=C(C(=O)OCCO)[C@@H](c2ccc(C#N)cc2)NC(=O)N1c1cccc(C(F)(F)F)c1 , tested with HEK-293T.
OUTPUT: 0.73

INPUT: Tell me reported Growth Rate for C[C@@H](CN1CC[C@@]2(C)c3cccc(O)c3C[C@@H]1C2(C)C)OCc1ccccc1.Cl , tested with HEK-293T.
OUTPUT: 0.74

INPUT: Tell me reported Growth Rate for CC(C)(C)c1ccc2c(c1)CC[C@H]2NC(=O)Nc1cccc2[nH]ncc12 [ABT-102] , tested with HEK-293T.
OUTPUT: 0.26

INPUT: Tell me reported Growth Rate for O=C1Nc2ccc(C(=O)c3ccco3)cc2C1=Cc1cc(Cl)c(O)c(Cl)c1 [GW406108X] , tested with HEK-293T.
OUTPUT: 0.25

----------
Tested on: HEK-293T
Assay: Incucyte cell viability with HEK293T; note: unitless GR value; below 1 slowed growth and below 0 cell loss
Type: toxicity, cell-based
Details: human, 18 h, 10 µM, compound concentration 10 uM, replicate number 2
Entry flag: met if Growth Rate reaches 0.8; not met if it does not.

INPUT: Is it the case that COc1cc([N+](=O)[O-])ccc1NC(=O)c1ccccc1O has Growth Rate reaching or exceeding 0.8?
OUTPUT: not met

----------
Listing of recorded Growth Rate by entry.
Tested on: U2OS
Experiment: Incucyte cell viability with U2OS; note: unitless GR value; below 1 slowed growth and below 0 cell loss
Assay type: toxicity, cell-based
Settings: human, 18 h, 10 µM, compound concentration 10 uM, replicate number 2

Here are 3 compounds together with their reported answers.
INSERT INTO assay_data (compound, parameter, result) VALUES
  ('CC1(C)C[C@@H]1C(=O)N/C(=C\CCCCSC[C@H](N)C(=O)O)C(=O)O', 'Growth Rate', 0.82),
  ('Clc1ccccc1C(c1ccccc1)(c1ccccc1)n1cccn1', 'Growth Rate', 0.94),
  ('CCCS(=O)(=O)Nc1ccc(F)c(Nc2ncnc3cnc(-n4cnc(C)c4)nc23)c1F', 'Growth Rate', 0.84);

INPUT: Give its Growth Rate value. Item: COCc1c(-c2cc3cc(C)cc(OC)c3s2)c2c(N)ncnn2c1CN[C@@H]1CCNC1=O
OUTPUT: 0.85

INPUT: Give its Growth Rate value. Item: O=C(N[C@H]1CN2CCC1CC2)c1ccc(Cl)cc1
OUTPUT: 0.8

INPUT: Give its Growth Rate value. Item: COC(=O)c1ccc2c(c1)NC(=O)/C2=C(\Nc1ccc(-c2nccn2C)cc1)c1ccccc1
OUTPUT: 0.62

INPUT: Give its Growth Rate value. Item: CNc1nc(NCc2ncccn2)c2c(-c3ccc4ncccc4c3)c[nH]c2n1
OUTPUT: 0.85

INPUT: Give its Growth Rate value. Item: CC1(C)CCC[C@]2(C)[C@@H](C=O)C(C=O)=CC[C@@H]12
OUTPUT: 0.76

INPUT: Give its Growth Rate value. Item: CC(C)(C)c1ccc(-c2coc3ccc(-c4cn[nH]c4)nc23)cc1
OUTPUT: 0.81
